experiment: chemical genetic growth profiling, strain panel (AID 1159580);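 further: tested at 20 µM; growth read once vehicle control cultures reached saturation at 30 °C; 1 = growth at the plate median or of vehicle wells; lower values mean less growth of the strain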; settings: S. cerevisiae deletion strains, growth OD, locus YDL185W, strain tfp1
The campaign covered roughly 5,500 compounds. About 2,000 (36%) were called active. Inconclusive results (about 18%) are left out. No stated cut-off is given here; in the data, active means normalized growth mostly below about 0.91 (no sharp cut-off); inconclusive means no clear call, values can overlap the other calls; inactive means mostly above about 0.92. Some of the results follow.
Select the correct class. Options are yes (1) (active), no (0) (inactive) and nothing else.

compound	class_assignment
Nc1nc2ncc(C(=O)O)nc2c(=O)[nH]1	no (0)
CC(=O)O[C@@H]1C[C@@]2(C)[C@H](c3ccoc3)C[C@H]3O[C@]32[C@]2(C)C(=O)C(O)=C3C(C)(C)C(=O)C=C[C@]3(C)C12 (stereo not given in full)	no (0)
Cc1ccc(/C(=C\CN2CCCC2)c2ccccn2)cc1	no (0)
O=C(O)CF	no (0)
COc1ccccc1OCCNCC(O)COc1cccc2[nH]c3ccccc3c12 (stereo not given)	no (0)

Next item in the queue.
Recorded call for CCN(CC)CCOc1ccc(/C(=C(\Cl)c2ccccc2)c2ccccc2)cc1 ?
yes (1)
